Target: Arginase (Homo sapiens, UniProt P05089)
Sequence (P05089 whole entry): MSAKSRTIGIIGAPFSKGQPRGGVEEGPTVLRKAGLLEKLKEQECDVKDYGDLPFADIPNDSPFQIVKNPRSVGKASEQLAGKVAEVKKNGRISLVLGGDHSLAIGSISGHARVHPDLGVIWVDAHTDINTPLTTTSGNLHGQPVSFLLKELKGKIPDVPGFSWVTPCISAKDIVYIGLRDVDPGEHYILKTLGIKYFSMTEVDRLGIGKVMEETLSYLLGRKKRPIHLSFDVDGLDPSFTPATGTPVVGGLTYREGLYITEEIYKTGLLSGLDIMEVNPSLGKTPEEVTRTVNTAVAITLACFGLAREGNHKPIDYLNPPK
Assay: Arginase Thioornithine Generating Assay (TOGA)
Type: biochemical
Conditions: Top Dose 10000 nM; read-out: Percent Inhibition at Top Dose
Procedure: Arginase Thioornithine Generating Assay (TOGA) Compounds were serially diluted in ten 3-fold steps in DMSO starting from 10 mM DMSO stocks. […] Arginase protein was recombinantly expressed in Escherichia coli. […] Plates were briefly shaken to mix and the fluorescence was measured in an Spectramax plate reader (Molecular Devices) with a 410 nm excitation wavelength and an 490 nm emission wavelength. Potencies were calculated by […] least squares fit to the four parameter logistic IC50 equation.

# Molecule, inhibition at 10 µM
records = [
    ("O=C(O)[C@@]12CNC[C@]1(CCCB(O)O)CCN2", "93%"),
    ("CN1CC2(CCCB(O)O)CCNC2(C(=O)O)C1 (racemic)", "85.1%"),
    ("C[C@H](N)C(=O)N1C[C@@]2(CCCB3O[C@@H]4C[C@@H]5C[C@@H](C5(C)C)[C@]4(C)O3)CCN[C@@]2(C(=O)O)C1", "97.9%"),
    ("CSCC[C@H](N)C(=O)N1C[C@@]2(CCCB(O)O)CCN[C@@]2(C(=O)O)C1", "102%"),
]

The origin of these recorded values is patent US12240867B2.
